TARGET_SYSTEM: human GLP-1R (Homo sapiens, UniProt P43220, G168S)
Sequence (P43220 24-463 G168S limits assumed): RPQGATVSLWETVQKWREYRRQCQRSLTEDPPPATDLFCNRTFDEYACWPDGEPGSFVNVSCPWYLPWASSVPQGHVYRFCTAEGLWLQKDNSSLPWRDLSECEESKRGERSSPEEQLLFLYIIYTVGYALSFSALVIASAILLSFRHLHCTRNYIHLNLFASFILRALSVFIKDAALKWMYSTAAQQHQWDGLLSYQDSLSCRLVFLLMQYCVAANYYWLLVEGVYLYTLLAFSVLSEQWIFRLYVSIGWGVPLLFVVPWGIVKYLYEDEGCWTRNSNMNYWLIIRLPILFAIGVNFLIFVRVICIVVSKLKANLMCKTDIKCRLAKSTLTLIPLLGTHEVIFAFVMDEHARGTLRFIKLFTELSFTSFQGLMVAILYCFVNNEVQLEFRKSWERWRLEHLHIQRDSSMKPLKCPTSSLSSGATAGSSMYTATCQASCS
ASSAY_PROCEDURE: CHO GLP-1R Clone H6 - Assay 1 (HTRF cAMP agonist assay)
MEASUREMENT_PARAMETERS: CHO GLP-1R Clone H6, cAMP HTRF; geometric mean
PARAMETER: log10(EC50) (log10 of the value in µM)
Note the log scale: values are log10 of EC50 expressed in µM.

Below, each entry is followed by its recorded log10(EC50) result.
CC1(c2ccc(Cl)cc2F)Oc2c(F)ccc(C3CCN(Cc4nc5ccc(C(=O)O)cc5n4C[C@@H]4CCO4)CC3)c2O1 (single isomer, unassigned) [Example 96]; -2.96
COCCn1c(CN2CCC(c3cccc4c3OC(c3ccc(Cl)cc3F)O4)CC2)nc2ccc(C(=O)O)cc21 (centres unmarked) [Example 20]; -1.77
COCCn1c(CN2CCC(c3cccc4c3OC(C)(c3ccc(OC)c(F)c3)O4)CC2)nc2ccc(C(=O)O)cc21 (centres unmarked); -1.35
CC1(c2ccc(Cl)cc2F)Oc2cccc(C3CCN(Cc4nc5ccc(C(=O)O)cc5n4CCN4CCOCC4)CC3)c2O1 (centres unmarked); -0.80

Exercise: Given the entry CC1(c2ccc(Cl)cc2F)Oc2cccc(C3CCN(Cc4nc5ccc(C(=O)O)cc5n4C4CCOC4)CC3)c2O1 (centres unmarked) , report its measured log10(EC50).
Key: -2.00

----------
The entries below are paired with their reported Assay 1 Emax (%).
TARGET_SYSTEM: human GLP-1R (Homo sapiens, UniProt P43220, G168S)
ASSAY_PROCEDURE: CHO GLP-1R Clone H6 - Assay 1 (HTRF cAMP agonist assay)
Format: cell-based
MEASUREMENT_PARAMETERS: CHO GLP-1R Clone H6; arithmetic mean, relative to saturating GLP-1 (1 μM)
Kindly provide the numeric value in % only, without the unit symbol.

Below, each entry is followed by its recorded Assay 1 Emax (%) result.
COCCn1c(C2CC23CCN(c2cccc4c2OC(C)(c2ccc(Cl)cc2F)O4)CC3)nc2ccc(C(=O)O)cc21 (single isomer, unassigned); 90
CC1(c2ccc(C#N)cc2F)Oc2cccc(C3CCN(Cc4nc5ccc(C(=O)O)cc5n4C[C@@H]4CCO4)CC3)c2O1 (single isomer, unassigned); 88

Exercise: Given the entry COCCn1c(CN2CCC(c3cccc4c3OC(C)(c3ccc(Cl)cn3)O4)CC2)nc2ccc(C(=O)O)cc21.N (stereo not drawn) , report its measured Assay 1 Emax (%).
Key: 90

----------
TARGET_SYSTEM: human GLP-1R (Homo sapiens (Human), UniProt P43220, L260F)
Sequence (P43220 24-463 L260F): as the sequence (P43220 24-463 G168S limits assumed) above, with S145G, L237F counted along it
ASSAY_PROCEDURE: CHO GLP-1R Clone C6 - Assay 2 (HTRF cAMP agonist assay, low receptor density)
MEASUREMENT_PARAMETERS: read-out: Assay 2 EC50; CHO GLP-1R Clone C6 (low receptor density), cAMP HTRF; geometric mean
PARAMETER: EC50 (nM)
Kindly provide the numeric value in nM only, without the unit symbol.

Below, each entry is followed by its recorded EC50 result.
CC1(c2ccc(Cl)cc2F)Oc2cccc(C3CCN(Cc4nc5ccc(C(=O)O)cc5n4Cc4cnco4)CC3)c2O1 (stereo not shown) [Example 69]; 8.3
CN(CCn1c(CN2CCC(c3cccc4c3OC(C)(c3ccc(Cl)cc3F)O4)CC2)nc2ccc(C(=O)O)cc21)S(C)(=O)=O (stereo not shown) [Example 71]; 74
CC1(c2ccc(Cl)cc2F)Oc2cccc(C3CCN(Cc4nc5ccc(C(=O)O)cc5n4CCO)CC3)c2O1 (stereo not shown) [Example 75]; 1000
COCCn1c(CN2CCC(c3cccc4c3OC(C)(c3ccccc3Cl)O4)CC2)nc2ccc(C(=O)O)cc21 (stereo not shown) [Example 86]; 410
CC1(c2ccc(Cl)cc2F)Oc2cccc(C3CCN(Cc4nc5ccc(C(=O)O)cc5n4CCCn4cncn4)CC3)c2O1 (stereo not shown) [Example 54]; 160

Alright, here's another compound for you.
Exercise: Record COCCn1c(CN2CCC(c3cccc4c3OC(C)(c3ccc(Cl)cc3)O4)CC2)nc2ccc(C(=O)O)cc21 (stereo not shown) [Example 33] : what is its EC50 with human GLP-1R (Homo sapiens (Human), UniProt P43220, L260F)?
Key: 100
